Numbers sourced from the supplement of paper PMC9732359.

Let's look at some sequences and their measured protein stability index.
- ASSAY_NOTES: protein stability index of a GFP-peptide fusion (yeast GPS) (PSI 1-4); higher = more stable; sorted into four equal gates, so the index is relative within each strain
- CONDITIONS: ubr1∆
MEASURED_QUANTITY: protein stability index

- CLGIKDEEMLTSCTIPK [GAL11]: 3.14
- NTEKDYKMVQEQLSKQR [SMC2]: 3.23
- MAKTLKDLDGWQVIITD [SIR3]: 2.71
- SSNPNSSLHSPTSDEPV [SRB4]: 3.15
- LVEAAKLLKIPKFISEA [YDL116W/NUP84]: 2.76
- VSGDAAALFRLHKFLTK [SWI3]: 3.08
- EFTPADPNLSFESSSSL [SSN2]: 2.79
- DELERILKELSNLETLY [RPB4]: 3.1
- DINQAKDFIENVNNRFD [BRN1]: 3.08
- LQLNEAEEFVAGVSHGT [SMX3]: 3.41
- DTSLCINGEPSIHVNRV [RRI1]: 3.04
- MPPKQQLSKAAKAAAAL [RPS25A]: 1.83
- VLDSYTPSTNEPYARVS [FAS1]: 3.01
- GLSLAGLAPDARVLSNY [PRE5]: 1.13
- TVSPDFVAATTNAGYTI [FAS1]: 2.56
- KKLNKNKKLIKKLSKKY [RPL1A]: 3.52
- MVTSNVVLVSGEGERFT [SKP1]: 1.73
- KRFKRKDNAKISNNLAL [SRP68]: 1.95
- PTVHNSTAAAPIAAPKK [PGD1]: 3.07
- LTFQPQQQTNALNGIDI [GRR1]: 3.1
- VTIREQINIMPSLKAHF [SIR3]: 2.68
- ITHQLNNKFANKIIPNV [RPC25]: 3.01
- SPLLESDSIEKIVEIDR [PUP2]: 3.49
- ECLQAYIFFGPIYYQKL [RET1]: 2.72
- IVFHNEFSEHTFVERLP [DIS3]: 2.68
- LTIDDLGVASFHGTSTK [FAS2]: 3.01
- PEIDNLDDLVVLKKKNI [RRP6]: 2.79
- ASLKKMEETEQKKIQIN [SMC3]: 2.23
- VDNIVNKYQYSLKQYAG [SRP68]: 2.99
- KSAMDTFKSVSKYGMLL [POP3]: 2.45
- WMMNGALQILNSGIIPG [FAS2]: 1.46

----------
- ASSAY_NOTES: protein stability index of a GFP-peptide fusion (yeast GPS) (PSI 1-4); higher = more stable; sorted into four equal gates, so the index is relative within each strain
- CONDITIONS: ubr1∆
# protein stability index listing for each entry below
MEASURED_QUANTITY: protein stability index

- TIWCVCDSYLDADKELS [BRR2]: 2.75
- GKKLTDEINTAQDKWHL [RET1]: 2.95
- KGPLLIERIGHLLSINY [PCI8]: 3.11
- NIFSEAVKNKYNVGKQL [PRP28]: 2.37
- NGLAIRRAAYGVVRYVM [RPS3]: 1.61
- ILDITDEELVSHFVSAV [RPP0]: 3.05
- VHPRKSYKMNSSAADIT [PRP8]: 2.74
- ESESERKYDLFQNLELE [SMC2]: 3.3
- VADEEANIELTWAEGTF [RPC37]: 2.52
- SVNPAMLPGSSNGGGKV [RPO31]: 3.08
- MSHRKYEAPRHGHLGFL [RPL3]: 2.94
- NYKQLTLVGGGAKITPE [RRP43]: 2.01
- SAEEQLRKIDMLQKKLV [SRB7]: 2.62
- LVDILPPDSDSSISVMG [RPT3]: 2.72
- SAFACKTDEVIILGTNL [BRR2]: 2.9
